Molecular target: α/β TCR/CD3 complex on Jurkat, Clone E6-1 cells (human) (UniProt P07766)
Assay: flow cytometry on Jurkat Clone E6-1 cells, Fab titration 10 µg/ml to 10 ng/ml; AUC of MFI vs log concentration, gain vs TPP-1374
quantity: % gain in binding AUC (%)
Write the value in % as a bare number.

// known answers, use as guide
TPP-1377 Fab fragment (Fab, V domains shown) VH: EVQLVQSGAEVKKPGASVKVSCKASGYKFTKYVMHWVRQAPGQGLEWMGYINPYNDVTKYAEKFQGRVTLTSDTSTSTAYMELSSLRSEDTAVHYCARGSYYDYEGFVYWGQGTLVTVSS VL: QIQMTQSPSSLSASVGDRVTITCSATSSVSYMHWYQQKPGKAPKRWIYDTSKLASGVPSRFSGSGSGTDYTLTISSLQPEDAATYYCQQWSSNPLTFGGGTKVEIKR
56
TPP-1387 Fab fragment (Fab, V domains shown) VH: EVQLVQSGAEVKKPGASVKVSCKASGYKFTSYVMHWVRQAPGQGLEWMGYINPYNDVTKYAEKFQGRVTLTSDTSTSTAYMELSSLRSEDTAVYYCARGSYYDYEGFVYWGQGTLVTVSS VL: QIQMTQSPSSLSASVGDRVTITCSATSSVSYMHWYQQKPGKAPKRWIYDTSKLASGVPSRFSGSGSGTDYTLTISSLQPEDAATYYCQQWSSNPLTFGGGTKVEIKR
14
TPP-1382 Fab fragment (Fab, V domains shown) VH: EVQLVQSGAEVKKPGASVKVSCKASGYKFTSYVMHWVRQAPGQGLEWMGYINPYNDVTKYAEKFQGRVTLTSDTSTSTAYMELSSLRSEDTAVHYCARGSYYDYEGFVYWGQGTLVTVSS VL: QIQMTQSPSSLSASVGDRVTITCSATSSVRYMHWYQQKPGKAPKRWIYDTSKLASGVPSRFSGSGSGTDYTLTISSLQPEDAATYYCQQWSSNPLTFGGGTKVEIKR
-66

# evaluate next
Q: Supply reported % gain in binding AUC belonging to this binder: TPP-1379 Fab fragment (Fab, V domains shown) VH: EVQLVQSGAEVKKPGASVKVSCKASGYKFTSYVMHWVRQAPGQGLEWMGYINPKNDVTKYAEKFQGRVTLTSDTSTSTAYMELSSLRSEDTAVHYCARGSYYDYEGFVYWGQGTLVTVSS VL: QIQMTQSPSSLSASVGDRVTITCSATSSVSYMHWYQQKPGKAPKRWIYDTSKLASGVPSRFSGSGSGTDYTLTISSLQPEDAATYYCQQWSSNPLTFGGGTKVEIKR
Ans: 1
